- assay-details: Components of the Cytosolic LPS Sensing Pathway: Gene Identification via Genome-wide siRNA Screen;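 also: robust z of the log signal after scaling to non-targeting control siRNA wells of the plate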
- settings: RAW264.7 macrophages, IL-1a HTRF, actives lie on both sides, screened at 100 nM (by protocol), cells primed 5 h with Pam3CSK4 first
The whole screen tested about 53,000 sequences, of which about 3,700 (7%) were called active. Only a selection was taken, and actives are over-represented in it overall.
z-score for assorted sequences
parameter-measured: z-score

GCUGUGUCACUACUUCGAUTT against Rpp40; 1.32
GCUUUUUACAGGAUAUACATT against Zfp644; -0.143
GAUUGUCACCACCUUAAGATT against Chchd5; -0.964
GCAGUGUUGUCAAAACUUGTT against Mtfmt; 1.54
GGGACGACUCUUUCUUAUGTT against Olfr1264; 0.822
GCAUCUGUGCCGAUUAAAATT against Asb15; 1.32
CCAAGUCUUGUAGUGGAGUTT against Vdac3; -0.269
GGGUGCAUCCCAUUCUCUUTT against Pld1; -0.0755
CCUCCUCUCUGUUUUCUACTT against Olfr699; -1.16
CCUCAAUUGCAUGUGACCUTT against Itgb1bp1; -2.32
CCAUCCCAUAUGUUCCGGUTT against Ptms; 0.94
GGAGCAAGACAUAUAGAAATT against Spsb2; 2.26
CCCUAAAAGACAAAGUGCUTT against Cmtm3; 0.877
GGAUUUAGCUAAGAGAGGGTT against Zmat3; -0.125
GGAGAAACUGAAACAAGCUTT against Gpc4; 0.403
GGAGAAGGGCCUGAAGUAUTT against Lsm5; -1.77
CGAGAAUAUUCGCCCAACCTT against Erbb3; 0.682
CCCUCAUGUUUAGCGAGCATT against Kcnj3; 0.644
GGAAGUGGAAAAACUGGUGTT against Ddx1; -1.21
GGGAAGUGACAUAUUCUCGTT against Brf2; -0.277
GCGAUCCUCUCUACUUAACTT against Eno4; -1.49
GGCCAUCUCUUCUACUGUATT against Glt28d2; 0.0935
GCCUAUCGUCCAGAUUAUCTT against Senp1; 0.919
GGUGGAGAAAAAUGCAACATT against Clnk; -0.429
GGUAUCCUGAUUGUUGAGUTT against Fam228a; 1.18

Cited source: PubChem BioAssay AID1508600
